Value source: the kinase profiling compilation of Christmann-Franck et al. (2016)

The entries below are paired with their reported inhibition.
Target or system: ALK NPM1 (human) (UniProt P06748+Q9UM73)
Sequence (P06748 whole entry, looked up): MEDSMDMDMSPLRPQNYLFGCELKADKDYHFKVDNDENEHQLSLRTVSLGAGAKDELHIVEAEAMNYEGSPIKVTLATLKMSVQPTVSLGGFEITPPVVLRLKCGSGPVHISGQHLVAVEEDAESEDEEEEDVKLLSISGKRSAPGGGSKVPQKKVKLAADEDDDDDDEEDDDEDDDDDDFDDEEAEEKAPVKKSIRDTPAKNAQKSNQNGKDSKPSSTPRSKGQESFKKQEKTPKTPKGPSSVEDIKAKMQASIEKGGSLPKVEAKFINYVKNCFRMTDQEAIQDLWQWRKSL
Sequence (Q9UM73 whole entry, looked up): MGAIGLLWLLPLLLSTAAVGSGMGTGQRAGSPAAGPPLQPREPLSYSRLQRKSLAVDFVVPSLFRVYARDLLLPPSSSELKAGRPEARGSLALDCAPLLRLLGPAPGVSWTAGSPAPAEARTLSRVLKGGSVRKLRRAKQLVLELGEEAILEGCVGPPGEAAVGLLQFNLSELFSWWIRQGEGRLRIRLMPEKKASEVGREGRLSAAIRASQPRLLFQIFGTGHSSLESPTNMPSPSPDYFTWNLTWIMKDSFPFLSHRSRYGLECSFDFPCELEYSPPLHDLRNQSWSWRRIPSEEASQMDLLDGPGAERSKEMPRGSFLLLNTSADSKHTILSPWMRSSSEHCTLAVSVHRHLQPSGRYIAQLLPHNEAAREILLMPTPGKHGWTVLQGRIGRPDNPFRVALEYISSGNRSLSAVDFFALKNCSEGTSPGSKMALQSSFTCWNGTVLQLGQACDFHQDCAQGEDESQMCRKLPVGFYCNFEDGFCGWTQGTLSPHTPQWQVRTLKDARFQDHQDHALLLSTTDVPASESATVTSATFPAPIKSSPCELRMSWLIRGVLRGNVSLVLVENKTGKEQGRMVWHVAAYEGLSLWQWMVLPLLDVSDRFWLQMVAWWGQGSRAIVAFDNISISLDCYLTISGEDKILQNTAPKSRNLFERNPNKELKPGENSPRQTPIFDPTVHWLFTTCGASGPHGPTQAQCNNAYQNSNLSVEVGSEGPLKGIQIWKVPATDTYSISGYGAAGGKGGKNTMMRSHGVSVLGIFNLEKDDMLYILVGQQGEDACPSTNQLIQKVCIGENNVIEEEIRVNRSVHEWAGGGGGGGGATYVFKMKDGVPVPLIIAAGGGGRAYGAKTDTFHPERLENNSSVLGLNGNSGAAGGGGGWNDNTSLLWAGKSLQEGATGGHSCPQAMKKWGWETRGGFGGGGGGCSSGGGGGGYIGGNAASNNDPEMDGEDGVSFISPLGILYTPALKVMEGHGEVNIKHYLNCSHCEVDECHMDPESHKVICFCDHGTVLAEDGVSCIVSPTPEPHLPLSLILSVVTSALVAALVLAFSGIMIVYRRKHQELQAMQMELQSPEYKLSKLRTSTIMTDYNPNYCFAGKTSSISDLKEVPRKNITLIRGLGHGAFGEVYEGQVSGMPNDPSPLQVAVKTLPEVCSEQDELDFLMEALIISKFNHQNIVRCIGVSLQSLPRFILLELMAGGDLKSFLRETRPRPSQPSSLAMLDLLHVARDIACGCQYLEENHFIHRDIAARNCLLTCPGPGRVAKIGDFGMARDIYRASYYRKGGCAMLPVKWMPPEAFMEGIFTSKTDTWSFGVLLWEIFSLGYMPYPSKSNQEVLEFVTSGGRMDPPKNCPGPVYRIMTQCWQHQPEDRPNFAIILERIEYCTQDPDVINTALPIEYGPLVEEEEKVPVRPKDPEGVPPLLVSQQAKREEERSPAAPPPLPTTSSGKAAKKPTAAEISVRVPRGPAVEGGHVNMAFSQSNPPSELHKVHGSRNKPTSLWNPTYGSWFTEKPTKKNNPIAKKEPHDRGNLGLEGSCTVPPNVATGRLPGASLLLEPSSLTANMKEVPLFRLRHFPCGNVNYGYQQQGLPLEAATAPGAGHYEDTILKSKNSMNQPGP
Test details: Caliper, Mobility shift assay off-chip
Measurement context: compound 0.02 µM
Report the value in % with no unit label.

Which measured inhibition belongs to CNC(=O)c1cc(Oc2ccc(NC(=O)Nc3ccc(Cl)c(C(F)(F)F)c3)cc2)ccn1 , tested on ALK NPM1 (human) (UniProt P06748+Q9UM73)?
-6

Which measured inhibition belongs to CNC(=O)c1ccccc1Sc1ccc2c(/C=C/c3ccccn3)n[nH]c2c1 , tested on ALK NPM1 (human) (UniProt P06748+Q9UM73)?
-0.3

Which measured inhibition belongs to Cc1ccc(Nc2nccc(N(C)c3ccc4c(C)n(C)nc4c3)n2)cc1S(N)(=O)=O , tested on ALK NPM1 (human) (UniProt P06748+Q9UM73)?
2.8

Which measured inhibition belongs to COc1cc2c(Oc3ccc4[nH]c(C)cc4c3F)ncnc2cc1OCCCN1CCCC1 , tested on ALK NPM1 (human) (UniProt P06748+Q9UM73)?
3.6
